Reference source: patent US20240417412A1

Target: KRAS G12D (Homo sapiens, UniProt P01116, G12D)
Sequence (P01116 1-188 isoform P01116-2 G12D): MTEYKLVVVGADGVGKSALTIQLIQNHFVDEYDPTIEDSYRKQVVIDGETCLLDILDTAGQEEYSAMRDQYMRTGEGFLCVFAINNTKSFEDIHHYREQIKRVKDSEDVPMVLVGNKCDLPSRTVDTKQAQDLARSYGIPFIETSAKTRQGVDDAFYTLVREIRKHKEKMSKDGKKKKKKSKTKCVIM
Experiment: KRAS G12D TR-FRET Assay
Details: His-tagged KRAS G12D, biotinylated KRPep-2d, read-out: KRAS G12D Binding IC50
assay metric: IC50 (nM)

[
  {
    "molecule": "CCc1c(F)ccc2cc(O)cc(-c3ncc4c(N5CCCC6(C5)CN(S(C)(=O)=O)C6)nc(OC[C@@]56CCCN5C[C@H](F)C6)nc4c3F)c12",
    "IC50 [nM]": 6
  },
  {
    "molecule": "CCc1c(F)ccc2cc(O)cc(-c3ncc4c(N5CCCC6(C5)CC(C)(O)C6)nc(OC[C@@]56CCCN5C[C@H](F)C6)nc4c3F)c12 (single isomer, unassigned) [Example 56]",
    "IC50 [nM]": 4
  },
  {
    "molecule": "Oc1cc(-c2ncc3c(N4CCCC5(CC(O)C5)C4)nc(OC[C@@]45CCCN4C[C@H](F)C5)nc3c2F)c2c(F)c(F)ccc2c1 (single isomer, unassigned) [Example 12]",
    "IC50 [nM]": 2
  },
  {
    "molecule": "CCc1c(F)ccc2cc(O)cc(-c3ncc4c(N5CCCC6(CCNC6=O)C5)nc(OC[C@@]56CCCN5C[C@H](F)C6)nc4c3F)c12 (stereo partly drawn)",
    "IC50 [nM]": 51
  },
  {
    "molecule": "CCc1c(F)ccc2cc(O)cc(-c3ncc4c(N5CCCC6(CCS(=O)(=O)C6)C5)nc(OC[C@@]56CCCN5C[C@H](F)C6)nc4c3F)c12 (single isomer, unassigned) [Example 35]",
    "IC50 [nM]": 2
  }
]

1: Oc1cc(Cl)c(C2CC2)c(-c2ncc3c(N4CCCC5(CC(O)C5)C4)nc(OC[C@@]45CCCN4C[C@H](F)C5)nc3c2F)c1 (single isomer, unassigned)
2: CCc1c(F)ccc2cc(O)cc(-c3ncc4c(N5CCCC6(CCO6)C5)nc(OC[C@@H]5C[C@@H](F)CN5C)nc4c3F)c12 (single isomer, unassigned)
3: CCc1c(F)ccc2cc(O)cc(-c3ncc4c(N5CCCC6(C5)CC6(F)F)nc(OC[C@@]56CCCN5C[C@H](F)C6)nc4c3F)c12 (stereo partly drawn)
Hello, I need these entries ordered by IC50, highest reading first. Thanks! Please, when replying, give the labels in the order that was requested.
2, 3, 1
(2: 6 nM, 3: 3 nM, 1: 1 nM)

I: CCc1c(F)ccc2cc(O)cc(-c3ncc4c(N5CCCC6(CCC(=O)O6)C5)nc(OC[C@@]56CCCN5C[C@H](F)C6)nc4c3F)c12 (single isomer, unassigned) [Example 66]
II: CCc1c(F)ccc2cc(O)cc(-c3ncc4c(N5CCCC6(CCC6O)C5)nc(OC[C@@]56CCCN5C[C@H](F)C6)nc4c3F)c12 (single isomer, unassigned) [Example 49]
III: CCc1c(F)ccc2cc(O)cc(-c3ncc4c(N5CCCC6(CCC(=O)O6)C5)nc(OC[C@@]56CCCN5C[C@H](F)C6)nc4c3F)c12 (single isomer, unassigned) [Example 65]
IV: CCc1c(F)ccc2cc(O)cc(-c3ncc4c(N5CCC6(CCCS6(=O)=O)C5)nc(OCC56CCCN5C[C@H](F)C6)nc4c3F)c12 (stereo in doubt)
V: Oc1cc(Cl)c(C2CC2)c(-c2ncc3c(N4CCCC5(CCO5)C4)nc(OC[C@@]45CCCN4C[C@H](F)C5)nc3c2F)c1 (stereo partly drawn)
Arrange the 5 molecules by rising IC50, starting with the smallest. Please, when replying, give the labels in the order that was requested.
V, I, II, IV, III

A: CCc1c(F)ccc2cc(O)cc(-c3ncc4c(N5CCCC6(CCS(=O)(=O)C6)C5)nc(OC[C@@]56CCCN5C[C@H](F)C6)nc4c3F)c12 (single isomer, unassigned) [Example 34]
B: Oc1cc(-c2ncc3c(N4CCCC5(CC(O)C5)C4)nc(OC[C@@]45CCCN4C[C@H](F)C5)nc3c2F)c2c(F)c(F)ccc2c1 (single isomer, unassigned) [Example 11]
C: O=C1NCC2(CCCN(c3nc(OC[C@@]45CCCN4C[C@H](F)C5)nc4c(F)c(-c5cc(O)cc6ccc(F)c(F)c56)ncc34)C2)O1 (single isomer, unassigned)
Arrange the 3 molecules by rising IC50, starting with the smallest. Please, when replying, give the labels in the order that was requested.
C, B, A
(C: 1 nM, B: 2 nM, A: 9 nM)

a: CCc1c(F)ccc2cc(O)cc(-c3ncc4c(N5CCCC6(CCO6)C5)nc(OC[C@@]56CCCN5C[C@H](F)C6)nc4c3C)c12 (single isomer, unassigned) [Example 61]
b: CCc1c(F)ccc2cc(O)cc(-c3ncc4c(N5CCC6(CC5)COC(=O)N6)nc(OC[C@@]56CCCN5C[C@H](F)C6)nc4c3F)c12
Quick check, higher IC50 between a and b ? Selection: enter the item's label.
a
(a: 10 nM, b: 7 nM)
